Hey, just so you know, these numbers are from paper PMC6212790.

test-target: GST-Rok-C97-191 (Bacillus subtilis subsp. subtilis str. …, UniProt O34857 97-191)
Sequence: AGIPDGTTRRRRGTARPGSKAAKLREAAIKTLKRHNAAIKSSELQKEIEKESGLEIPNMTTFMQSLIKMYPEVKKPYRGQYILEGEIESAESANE
protocol-text: protein binding microarray; Rok is a gene silencer of Bacillus subtilis; high values mean tight binding
cond: protein: recombinant; tags: GST (pTH5325, pDEST15-Magic modified); dsDNA, one strand shown
In all, about 33,000 sequences were measured (“e-score”: median about -0.038, highest 2% from about 0.33 on). The entries come from a sample that favours the highest values as a whole.
Each record gets a class by binding signal: 0: < -0.04 E-score; 1: ≥ -0.04 E-score and < 0.02 E-score; 2: ≥ 0.02 E-score

sequence-code	test-target	cat
AAGTTTAA	GST-Rok-C97-191 (Bacillus subtilis subsp. subtilis str. …, UniProt O34857 97-191)	1
CCAGTTCG	GST-Rok-C97-191 (Bacillus subtilis subsp. subtilis str. …, UniProt O34857 97-191)	0
AAATTGAT	GST-Rok-C97-191 (Bacillus subtilis subsp. subtilis str. …, UniProt O34857 97-191)	2
CTAGTAAA	GST-Rok-C97-191 (Bacillus subtilis subsp. subtilis str. …, UniProt O34857 97-191)	2
CGAGTGTC	GST-Rok-C97-191 (Bacillus subtilis subsp. subtilis str. …, UniProt O34857 97-191)	1
GAGTTTCA	GST-Rok-C97-191 (Bacillus subtilis subsp. subtilis str. …, UniProt O34857 97-191)	1
GGAGTAAA	GST-Rok-C97-191 (Bacillus subtilis subsp. subtilis str. …, UniProt O34857 97-191)	1
AACTACAT	GST-Rok-C97-191 (Bacillus subtilis subsp. subtilis str. …, UniProt O34857 97-191)	2
GTCACAAA	GST-Rok-C97-191 (Bacillus subtilis subsp. subtilis str. …, UniProt O34857 97-191)	2
CACTAACG	GST-Rok-C97-191 (Bacillus subtilis subsp. subtilis str. …, UniProt O34857 97-191)	0
ACCGGAAA	GST-Rok-C97-191 (Bacillus subtilis subsp. subtilis str. …, UniProt O34857 97-191)	0
CAATTGTG	GST-Rok-C97-191 (Bacillus subtilis subsp. subtilis str. …, UniProt O34857 97-191)	1
GGAAAAAA	GST-Rok-C97-191 (Bacillus subtilis subsp. subtilis str. …, UniProt O34857 97-191)	0
TCATCTAA	GST-Rok-C97-191 (Bacillus subtilis subsp. subtilis str. …, UniProt O34857 97-191)	1
ACGGTCCT	GST-Rok-C97-191 (Bacillus subtilis subsp. subtilis str. …, UniProt O34857 97-191)	0
GATAGTCA	GST-Rok-C97-191 (Bacillus subtilis subsp. subtilis str. …, UniProt O34857 97-191)	1
GATAGTTA	GST-Rok-C97-191 (Bacillus subtilis subsp. subtilis str. …, UniProt O34857 97-191)	2
GCTAGGCA	GST-Rok-C97-191 (Bacillus subtilis subsp. subtilis str. …, UniProt O34857 97-191)	0
CGTAGTTC	GST-Rok-C97-191 (Bacillus subtilis subsp. subtilis str. …, UniProt O34857 97-191)	2
